As shown below, each of these molecules has a reported melting point value.

{"molecule": "N#CCC(=O)c1ccccc1F", "melting point": "51 to 53 °C"}
{"molecule": "CN(C)S(=O)(=O)c1cccc(C(=O)NCC(=O)O)c1", "melting point": "172 to 176 °C"}
{"molecule": "Cc1ccc(N2N=C(C(=O)O)NCC2=O)cc1", "melting point": "98 to 100 °C"}
{"molecule": "c1cn(C2CCNCC2)cn1", "melting point": "135 to 137 °C"}
{"molecule": "COc1cccc(-n2cnnc2S)c1", "melting point": "167 to 169 °C"}
{"molecule": "COc1ccc(NS(=O)(=O)c2ccc(C=CC(=O)O)cc2)cc1", "melting point": "238 to 240 °C"}
{"molecule": "CC(N)(CO)C1CCCCC1 (stereo not drawn)", "melting point": "80 to 82 °C"}
{"molecule": "O=C(O)c1cc(Cl)cc(Cl)n1", "melting point": "93 to 95 °C"}
{"molecule": "O=C(O)c1ccc2c(c1)C(=O)N(C1CC1)C2=O", "melting point": "220 to 222 °C"}
{"molecule": "CCCNc1ccc(Cl)cc1N", "melting point": "62 to 64 °C"}

[Q] Quick one: melting point for COc1ccc(S(=O)(=O)NCCC(=O)O)cc1 ?
[A] 125 to 127 °C

[Q] Quick one: melting point for CNc1ccc2ccccc2n1 ?
[A] 69 to 71 °C

[Q] Quick one: melting point for NNC(=O)c1cc(-c2ccco2)nc2ccccc12 ?
[A] 219 to 221 °C

[Q] Quick one: melting point for Cc1cc(NN)ncn1 ?
[A] 99 to 101 °C

[Q] Quick one: melting point for Cc1cnc(Br)nc1Br ?
[A] 58 to 60 °C

[Q] Quick one: melting point for O=C(O)Cc1ccc2c(c1)CCO2 ?
[A] 102 to 104 °C

[Q] Quick one: melting point for O=C(O)C1(Cc2nc3ccccc3s2)CCCCC1 ?
[A] 170 to 172 °C

[Q] Quick one: melting point for O=C(O)C=Cc1cc(Br)ccc1OC(F)F ?
[A] 155 to 157 °C

---

observationType: melting point

Solved entries (count: 6):
{"compound": "Cn1nc(Br)c2c(N)ncnc21", "result": "228 to 230 °C"}
{"compound": "Fc1ccccc1Cc1nnc(S)o1", "result": "134 to 136 °C"}
{"compound": "Cc1nn(-c2ccc(F)cc2)c2sc(C(=O)O)cc12", "result": "205 to 210 °C"}
{"compound": "O=C(O)C1CCN(S(=O)(=O)c2ccc(F)c(Cl)c2)CC1", "result": "190 to 192 °C"}
{"compound": "CS(=O)(=O)Cc1ccc(N)cc1F", "result": "152 to 154 °C"}
{"compound": "Nc1ccn(-c2ncccc2F)n1", "result": "89 to 91 °C"}

[Q] Quick one: melting point for Cc1ccc(S(=O)(=O)N(O)c2ccccc2)cc1 ?
[A] 36 to 40 °C

[Q] Quick one: melting point for NC(=O)CCOc1ccccc1N ?
[A] 98 to 100 °C

[Q] Quick one: melting point for CC(O)c1ccc(NC(=O)c2ccncc2)cc1 (stereo not drawn) ?
[A] 174 to 176 °C

[Q] Quick one: melting point for CN1CCN(S(=O)(=O)c2cccnc2NN)CC1 ?
[A] 109 to 111 °C

[Q] Quick one: melting point for Nc1ccnn1-c1ccc(C(F)(F)F)cn1 ?
[A] 89 to 91 °C

[Q] Quick one: melting point for Cc1ccc(C(=O)N(C)C)cc1O ?
[A] 153 to 155 °C

[Q] Quick one: melting point for CC(C)n1nnnc1S ?
[A] 89 to 91 °C

The origin of these recorded values is a melting point compilation (Tetko et al.).
